tested on: HL-60; assay: NCI tumour cell line growth inhibition, 48 h
Calls of active or inactive are those of the source. Rule as the data show it: active = GI50 up to about 1.1 µM and inactive = higher.
Give your call using only these classes: active, inactive

// known answers, use as guide
[
  {
    "compound": "COC(=O)C(C(=O)C(=O)Nc1ccc(OC)cc1[N+](=O)[O-])c1nc2cc(C)c(C)cc2nc1O (stereo not given)",
    "label": "inactive"
  },
  {
    "compound": "O=C(CC(=O)n1nc(-c2ccccc2)c(/N=N/c2ccccc2Cl)c1-c1ccccc1)Nc1ccc(Cl)cc1",
    "label": "inactive"
  }
]

Hi, sorry to bother you, what did the test record for O=C1C(=O)N(c2ccc(Cl)c(Cl)c2)C(=O)C(=O)C1c1nc2ccccc2o1 ?
inactive

For CC(=O)OC1CC2(O)C(CCC3(C)C(c4ccc(=O)oc4)CCC32O)C2(C)CCC(O)C=C12 (stereo not given) , what call appears in the results of this test?
active

Tell me the assay call for COc1cc2c(cc1OC)[C@H]1C(COC(=O)Nc3ccccc3)CN1CC2 (stereo not given in full) please.
inactive

Test call, this compound: CCCCCOc1ccc(/C=N\c2ccc(-c3ccc(/N=C\c4ccc(OCCCCC)cc4)c(OC)c3)cc2OC)cc1
inactive

Record request — test call for CCCCCCCCCCCCCCCCOCC(CN(C)CCN(C)C)OCCCCCCCCCCCCCCCC (stereo not given)
inactive

What is the recorded call for this compound in the test? CC1=C(Cl)C=CP(=O)(OC(C)C)C1 (stereo not given)
inactive

Each compound tested received a call. Report the one for Cc1cn2c(/C=C3/C(=O)Nc4ccccc43)c(C)nc2s1 .
active

For CCP(=S)(CC)CCl , what call appears in the results of this test?
inactive
